# System: L1210 leukemia ip in BDF1 mice, survival T/C
# Procedure details: NCI In Vivo Anticancer Drug Screen. Data for tumor model L1210 Leukemia (intraperitoneal) in B6D2F1 (BDF1) mice
# Study conditions: endpoint: mean survival time; dose: 200.0 mg/kg/injection; schedule: Q04DX003 (ip); vehicle: carboxymethylcellulose (CMC); higher = longer survival
Inconclusive results and toxic doses are left out.
Readout: T/C

molecule=O=C(Nc1cccc2ccccc12)Oc1ccc(C2CCCCC2)cc1 result="100 % of control"

May I ask what T/C has been recorded for `CNC(=O)Oc1ccc(C2CCCCC2)cc1` ? 94 % of control

May I ask what T/C has been recorded for `O=C(O)CNCCN1CC(=O)N(Cc2ccccc2)C1=S` ? 98 % of control

May I ask what T/C has been recorded for COC(=O)CCC(C)C1CCC2C3C(OC(C)=O)CC4CC(O)CCC4(C)C3CC(O)C12C (configuration not stated) ? 97 % of control

====

# System: L1210 leukemia ip in BDF1 mice, survival T/C
# Procedure details: NCI In Vivo Anticancer Drug Screen. Data for tumor model L1210 Leukemia (intraperitoneal) in B6D2F1 (BDF1) mice
# Study conditions: endpoint: mean survival time; dose: 200.0 mg/kg/injection; schedule: Q04DX003 (ip); vehicle: acetone; higher = longer survival
Toxic doses and inconclusive results are not listed.
The following molecules are listed with their measured T/C values.

molecule=O=P(O)(c1cccc(Cl)c1)c1cccc(Cl)c1 result="107 % of control"
molecule="COc1ccc([N+](=O)[O-])c2c1CONC2(C)C(=O)O (configuration not stated)" result="95 % of control"
molecule=O=S(=O)(/C=C/c1ccccc1)N1CCOCC1 result="105 % of control"
molecule=Nc1ccc(I)c([N+](=O)[O-])c1 result="92 % of control"
molecule=CCCCNc1nc(N)nc(Nc2ccc(Br)cc2)c1N=O result="94 % of control"

Field: T/C (L1210 leukemia ip in BDF1 mice, survival T/C). Entry: `COc1ccc2oc(C(=O)O)cc2c1` 101 % of control

Field: T/C (L1210 leukemia ip in BDF1 mice, survival T/C). Entry: `c1ccc2c(c1)ccc1c[s+]ccc12` 103 % of control

====

# Tested on: L1210 leukemia ip in BDF1 mice, survival T/C
# Procedure details: NCI In Vivo Anticancer Drug Screen. Data for tumor model L1210 Leukemia (intraperitoneal) in B6D2F1 (BDF1) mice
# Study conditions: endpoint: mean survival time; dose: 200.0 mg/kg/injection; schedule: Q04DX002 (ip); vehicle: saline with Tween-80; higher = longer survival
Toxic doses and inconclusive results are not listed.
Readout: T/C

compound=Cc1cc(Cl)ccc1O/C(=C/C(=O)O)C(=O)O result="107 % of control"

May I ask what T/C has been recorded for `[O-][n+]1ccc(CCc2ccccc2)cc1` ? 101 % of control

May I ask what T/C has been recorded for `CNC(=O)Oc1c(C)cccc1C` ? 106 % of control

May I ask what T/C has been recorded for `c1ccc2c(c1)Oc1ccccc1[Te]2` ? 103 % of control

May I ask what T/C has been recorded for Cc1cc(C)nc(NCCCC(N)C(=O)O)n1 (stereo unspecified) ? 95 % of control

May I ask what T/C has been recorded for C/C(=C\COc1ccccc1)CCC1OC1(C)C (stereo unspecified) ? 93 % of control
